FYI, the data here is from paper PMC11943016.

# Protocol notes: Pharmacokinetic analysis of plasma in SD rats
# Format: in vivo
# Measurement parameters: female, Sprague-Dawley, rat, iv, i.v. 14 mg/kg, rats
Endpoint: Cmax (ng/mL)
Please give a number only; it is taken to be in ng/mL.

Looking for the measured Cmax of O=C(SCCCCCCSCCCC(F)(F)F)c1cccc(O)c1O [TBG096] , can you help? 4700

###

# Protocol notes: Pharmacokinetic analysis of plasma in SD rats
# Assay type: in vivo
# Measurement parameters: female, Sprague-Dawley, rat, iv, 14 mg/kg, i.v. 14 mg/kg, rats, read-out: T1/2z
Endpoint: half-life (min)
Give just the numeric value; min need not be written.

Item under review: O=C(SCCCCCCSCCCC(F)(F)F)c1cccc(O)c1O [TBG096] . Reported half-life? 44.4

###

# Protocol notes: Pharmacokinetic analysis of plasma in SD rats
# Type: in vivo
# Measurement parameters: female, Sprague-Dawley, rat, oral (i.g.) 14 mg/kg, rats
# Procedure: In the pharmacokinetic analysis, a total of 23 female SD rats aged 8 weeks from Zhejiang Academy of Medical Sciences (Hangzhou, China) (permit number: ZJU20240191) were used. A total of 15 rats were randomly divided into the following groups: (i) control group, (ii) TBG096 (14 mg/kg) oral administration group, and (iii) TBG096 (14 mg/kg) intravenous administration group. […]
Endpoint: Tmax (min)
Field: numeric (min). Do not append units.

// lookup Tmax for `O=C(SCCCCCCSCCCC(F)(F)F)c1cccc(O)c1O` 15

###

# Protocol notes: Pharmacokinetic analysis of plasma in SD rats
# Assay type: in vivo
# Measurement parameters: female, Sprague-Dawley, rat, 14 mg/kg oral vs i.v., rats, read-out: absolute (oral) bioavailability
Endpoint: bioavailability (%)
Unit % implied. Number only.

Requested read-out: bioavailability. Entry: O=C(SCCCCCCSCCCC(F)(F)F)c1cccc(O)c1O [TBG096] 36

###

# Protocol notes: Brain concentration after oral administration in rats (BBB passage)
# Assay type: in vivo
# Measurement parameters: female, Sprague-Dawley, rat, brain; 15 min after single oral dose 14 mg/kg, rats
Endpoint: concentration at 15 min
Give the number first and the unit second.

Quick one: concentration at 15 min for `O=C(SCCCCCCSCCCC(F)(F)F)c1cccc(O)c1O` ? 81.7 ng/g

###

# Protocol notes: Pharmacokinetic analysis of plasma in SD rats
# Type: in vivo
# Measurement parameters: female, Sprague-Dawley, rat, oral (i.g.) 14 mg/kg, rats
Endpoint: AUC(0-inf)

For the compound O=C(SCCCCCCSCCCC(F)(F)F)c1cccc(O)c1O [TBG096] , what AUC(0-inf) is on record? 905 ng·h/mL
